- System: 463943-066-T-J2-PDC complex spheroid growth;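 note: compound exposure lasted 7 days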
- Test Summary: Anticancer human tumor 463943-066-T-J2-PDC patient-derived colon adenocarcinoma cell line growth inhibition [Asc]
- Condition Label: curve of first compound; second compound 0.1 µM
// IC50 lookup, one value per entry

// known answers, use as guide
| Compound | Assayed System | Measured Property | Assay Value |
| --- | --- | --- | --- |
| NC(=O)C(=Cn1cnc(-c2cc(C(F)(F)F)cc(C(F)(F)F)c2)n1)c1cncnc1 + CNC(C)C(=O)NC1CN(S(=O)(=O)c2cccc(S(=O)(=O)N3CCC4CCC(C(=O)NC(c5ccccc5)c5ccccc5)N4C(=O)C(NC(=O)C(C)NC)C3)c2)CCC2CCC(C(=O)NC(c3ccccc3)c3ccccc3)N2C1=O | 463943-066-T-J2-PDC complex spheroid growth | IC50 | > 300 nM |
| Cn1ncnc1[C@H]1c2n[nH]c(=O)c3cc(F)cc(c23)N[C@@H]1c1ccc(F)cc1 + Cc1c(S(C)(=O)=O)c(-c2cc(F)cc(N3CCN(c4ccc(NS(=O)(=O)c5ccc(NC(CCN6CCC(C(=O)OCCCP(=O)(O)O)CC6)CSc6ccccc6)c(S(=O)(=O)C(F)(F)F)c5)cc4)CC3)c2)c(-c2ccc(Cl)cc2)n1C(C)C | 463943-066-T-J2-PDC complex spheroid growth | IC50 | > 100 nM |

Let's switch to this compound now.
Could you share which IC50 value was measured for CCN1C(C(=O)NC23CCC(C(=O)O)(CC2)CC3)C(c2cccc(Cl)c2F)C2(C(=O)Nc3cc(Cl)ccc32)C12CCCCC2 (stereo not drawn) + Cc1c(S(C)(=O)=O)c(-c2cc(F)cc(N3CCN(c4ccc(NS(=O)(=O)c5ccc(NC(CCN6CCC(C(=O)OCCCP(=O)(O)O)CC6)CSc6ccccc6)c(S(=O)(=O)C(F)(F)F)c5)cc4)CC3)c2)c(-c2ccc(Cl)cc2)n1C(C)C ?
> 3000 nM
